Origin of values: the supplement of paper PMC9112550

tested on: Escherichia coli TOP10; assay: shrunken log2 fold change of peptide-encoding DNA abundance (4.5 h post-induction vs induction); higher = less antimicrobial activity (less host growth inhibition); details: time post-induction: 4.5 h; library: site-saturation at positions 5, 18, 19, 20
Label scheme for shrunken log2 fold change: low: < -0.08; mid: ≥ -0.08 and < 0.4; high: ≥ 0.4

Exam item: Which class does `RRIRMRPPRLPRPRPRPSRRPRP` fall in?
Marked response: mid

Exam item: Category lookup for the sequence `RRIRRRPPRLPRPRPRPENPPRP`
Marked response: high

Exam item: Which shrunken log2 fold change category applies to `RRIRGRPPRLPRPRPRPNCQPRP` here?
Marked response: high

Exam item: Each sequence maps to one class by shrunken log2 fold change. Which class for `RRIRQRPPRLPRPRPRPDILPRP` ?
Marked response: mid

Exam item: For `RRIRQRPPRLPRPRPRPVMHPRP` , which shrunken log2 fold change bin applies?
Marked response: low

Exam item: The entry to classify is `RRIRQRPPRLPRPRPRPNVEPRP` ; which class holds it?
Marked response: mid

Exam item: Please indicate the class for `RRIRWRPPRLPRPRPRPRPYPRP` based on its shrunken log2 fold change.
Marked response: mid

Exam item: Hello team, could you let me know which band the following sequence falls into: `RRIRSRPPRLPRPRPRPEPCPRP`
Marked response: mid

Exam item: Band of `RRIRTRPPRLPRPRPRPGCKPRP` ?
Marked response: low

Exam item: In plain terms, what class is `RRIRPRPPRLPRPRPRPRPHPRP` ?
Marked response: high

Exam item: Category of `RRIRPRPPRLPRPRPRPYASPRP` , please.
Marked response: mid

Exam item: // return the class label for `RRIRCRPPRLPRPRPRPCDKPRP`
Marked response: low

Exam item: Textbook exercise: identify the category of the sequence given here, `RRIRDRPPRLPRPRPRPQFIPRP` , according to its measured value.
Marked response: low

Exam item: Sort into band: `RRIRHRPPRLPRPRPRPLCSPRP`
Marked response: low

Exam item: Class? Entry: `RRIRMRPPRLPRPRPRPYTDPRP`
Marked response: low

Exam item: Kindly state the category for this sequence: `RRIRHRPPRLPRPRPRPPPNPRP`
Marked response: high

Exam item: Category of `RRIRMRPPRLPRPRPRPGDAPRP` , please.
Marked response: high

---

test system: Escherichia coli TOP10; test: shrunken log2 fold change of peptide-encoding DNA abundance (4.5 h post-induction vs induction); higher = less antimicrobial activity (less host growth inhibition); conditions: time post-induction: 4.5 h; library: site-saturation at positions 5, 18, 19, 20;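 also: peptides expressed intracellularly from a pBAD plasmid library in pooled LB shake-flask culture, induced with 0.3% L-arabinose, DNA abundance read by NGS, three biological replicates, DESeq2 with apeglm shrinkage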
Decide by shrunken log2 fold change: equal to or exceeding -0.03 means y, less means n.

Exam item: Could you tell me if the measured shrunken log2 fold change of `RRIRNRPPRLPRPRPRPRVSPRP` reaches -0.03 or more?
Marked response: y

Exam item: Item `RRIRVRPPRLPRPRPRPYFMPRP` with shrunken log2 fold change of -0.03 or above?
Marked response: n

Exam item: Does `RRIRCRPPRLPRPRPRPAVKPRP` have a reported shrunken log2 fold change of at least -0.03?
Marked response: n

Exam item: Identify whether the reported shrunken log2 fold change of the following sequence is -0.03 or greater: `RRIRPRPPRLPRPRPRPGTRPRP`
Marked response: y

Exam item: Entry `RRIRQRPPRLPRPRPRPKCMPRP` : is its shrunken log2 fold change no less than -0.03?
Marked response: n

Exam item: Can `RRIRFRPPRLPRPRPRPTVYPRP` be said to have shrunken log2 fold change at or above -0.03?
Marked response: n

Exam item: Test whether the sequence `RRIRYRPPRLPRPRPRPPMLPRP` records shrunken log2 fold change of -0.03 or higher.
Marked response: n

Exam item: // inclusive: shrunken log2 fold change at least -0.03? input: `RRIRTRPPRLPRPRPRPMNPPRP`
Marked response: n

Exam item: Could you tell me if the measured shrunken log2 fold change of `RRIRSRPPRLPRPRPRPIHQPRP` reaches -0.03 or more?
Marked response: n

Exam item: shrunken log2 fold change >= -0.03 for `RRIRTRPPRLPRPRPRPHKWPRP` ?
Marked response: y

Exam item: Determine whether measured shrunken log2 fold change meets or exceeds -0.03 for `RRIRCRPPRLPRPRPRPGYEPRP`
Marked response: y

Exam item: Decide: is the reported value of shrunken log2 fold change for `RRIRKRPPRLPRPRPRPYTTPRP` equal to or greater than -0.03?
Marked response: n

Exam item: Is it the case that `RRIRPRPPRLPRPRPRPYGGPRP` has shrunken log2 fold change reaching or exceeding -0.03?
Marked response: n

Exam item: API: above_or_equal(metric=shrunken log2 fold change, cutoff=-0.03) for item `RRIRVRPPRLPRPRPRPWESPRP`
Marked response: y

Exam item: Does the reported shrunken log2 fold change for `RRIRKRPPRLPRPRPRPWCSPRP` fall at or above the -0.03 mark?
Marked response: n

Exam item: Please indicate if the recorded shrunken log2 fold change for `RRIRERPPRLPRPRPRPYLEPRP` meets or exceeds -0.03.
Marked response: n

Exam item: Is the recorded value of shrunken log2 fold change equal to or greater than -0.03 for this sequence? `RRIRRRPPRLPRPRPRPDNYPRP`
Marked response: n

Exam item: Check if shrunken log2 fold change >= -0.03 (inclusive). Item: `RRIRHRPPRLPRPRPRPYRCPRP`
Marked response: y

Exam item: Could you please find out whether `RRIRTRPPRLPRPRPRPHPCPRP` has shrunken log2 fold change that meets -0.03 or exceeds it?
Marked response: n

Exam item: Hi team, for `RRIRDRPPRLPRPRPRPALFPRP` , is the recorded shrunken log2 fold change at or above -0.03?
Marked response: y

Exam item: Does the reported shrunken log2 fold change for `RRIRKRPPRLPRPRPRPHTMPRP` fall at or above the -0.03 mark?
Marked response: y

Exam item: Is reported shrunken log2 fold change greater than or equal to -0.03 here: `RRIRMRPPRLPRPRPRPPCIPRP`
Marked response: n

Exam item: Quick check, shrunken log2 fold change >= -0.03? `RRIRERPPRLPRPRPRPIWIPRP`
Marked response: n
